All figures here come from patent US20120077731A1.

Molecular target: T1, Human soluble IL-6R (human, UniProt P08887 20-358)
T1 construct: Soluble recombinant form; biotinylated in some assays; also called hIL-6R; human IL-6R
T1 sequence (looked up): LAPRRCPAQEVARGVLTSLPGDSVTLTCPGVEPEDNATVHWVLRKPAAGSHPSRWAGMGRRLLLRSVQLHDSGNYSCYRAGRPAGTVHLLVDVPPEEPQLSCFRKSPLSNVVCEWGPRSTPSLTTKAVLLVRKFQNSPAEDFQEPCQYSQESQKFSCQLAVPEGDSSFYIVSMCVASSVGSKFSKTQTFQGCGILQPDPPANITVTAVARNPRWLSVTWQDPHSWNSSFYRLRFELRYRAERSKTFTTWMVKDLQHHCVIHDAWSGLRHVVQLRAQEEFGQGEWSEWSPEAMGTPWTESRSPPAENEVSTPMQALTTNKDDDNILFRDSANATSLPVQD
Assay: Biacore, binding to IL-6R
recorded.metric: koff (s⁻¹)
The reply should contain only the number, in s⁻¹.

Examples with their reported koff follow.
binder	recorded.metric	test.value
IL6R82 (VHH) VHH: EVQLVESGGGLVQPGGSLRLSCAASGFTFDDYGMSWVRQAPGKGLEWVSAISWNGNNTYYTESMKGRFTISRDNAKNTVYLQMNSLRPEDTAVYYCVKGSTAIVGVPPTYPDEYDYWGQGTLVTVSS	koff	0.00314
IL6R81 (VHH) VHH: EVQLVESGGGLVQPGGSLRLSCAASGFTFDDYGMSWVRQAPGRATEWVSAISWNGNNTYYTESMKGRFTISRDNAKNTVYLQMNSLRPEDTAVYYCVKGSTAIVGVPPTYPDEYDYWGQGTLVTVSS	koff	0.000128

Supply measured koff of IL6R73 (VHH) VHH: EVQLVESGGGLVQPGGSLRLSCAASGFTFDDYDIGWFRQAPGKGREGVSGISSSDGNTYYADSVKGRFTISRDNAKNTVYLQMNSLRPEDTAVYYCAAEPPDSSWYLDGSPEFFKYWGQGTLVTVSS in your reply. 0.000233

Supply measured koff of IL6R83 (VHH) VHH: EVQLVESGGGLVQPGGSLRLSCAASGFTFDDYGMSWVRQAPGRATEWVSAISWNGNNTYYTESMKGRFTISRDNAKNTLYLQMNSLRPEDTAVYYCVKGSTAIVGVPPTYPDEYDYWGQGTLVTVSS in your reply. 0.00012
